- method summary: physchem
- protocol conditions: LogPA
Please mark Criterion met if the recorded chromatographic logP is equal to or greater than 2, and Criterion not met if it falls below.

compound	group
CCOC(=O)Cn1cc(-c2ccncc2)c(-c2ccc(F)cc2)n1	Criterion not met
CC(C)C(=O)Nc1cc(-c2cn(C(C)C3CC3)nc2-c2ccc(F)cc2)ccn1 (centres unmarked)	Criterion met

Request: Does the compound CC(Nc1cc(-c2cn(C)nc2-c2ccc(F)cc2)ccn1)C(F)(F)F (centres unmarked) have recorded chromatographic logP that is 2 or more?
Response: Criterion not met

Request: Is chromatographic logP for CCn1cc(-c2ccnc(NC(=O)CCc3ccc(Cl)cc3)c2)c(-c2ccc(F)cc2)n1 at or above 2?
Response: Criterion met

Request: Quick check, chromatographic logP >= 2? CC(C)n1cc(-c2ccnc(NC(=O)N(C)C)c2)c(-c2ccc(F)cc2)n1
Response: Criterion not met
